The following binders are listed with their measured log10(Kd) values.
- TEST_SYSTEM: Low Density Lipoprotein Receptor (LDLR), recombinant (UniProt P01130 22-788)
- EXPERIMENT: SPR; HBS + 0.005% P20, peptide
PROPERTY: log10(Kd) (log10 of the value in µM)

{"BINDER": "HLRKLRKRLLRDGDKLQKRLAEYQARAKEAFDR [T-052]", "RECORDED_MEASUREMENT": 0.07}
{"BINDER": "T-069 (peptide) peptide: VRGRLVQYRGEVQAMLGQSTEELRVRLASHLRKLRKRLLRDADDLQKRLAVYQA", "RECORDED_MEASUREMENT": 0.05}
{"BINDER": "LVQYRGEVQAMLGQSTEELRVRLASHLRKLRKRLLRDADDLQKRLAVYQA [T-070]", "RECORDED_MEASUREMENT": 0.14}
{"BINDER": "HLRKLVKRLFRDGDKLQDRLAEYQARAKEAFDR [T-059]", "RECORDED_MEASUREMENT": 0.89}
{"BINDER": "HLRRLRRRLLRDGDKLQDRLAEYQARAKEAFDR [T-041]", "RECORDED_MEASUREMENT": 2.85}
{"BINDER": "T-068 (peptide) peptide: MEDVRGRLVQYRGEVQAMLGQSTEELRVRLASHLRKLRKRLLRDADDLQKRLAVYQA", "RECORDED_MEASUREMENT": 0.17}
{"BINDER": "LARHLRKLRKRLARSLVSQYFQTVTDYGKDLM [T-066]", "RECORDED_MEASUREMENT": 0.31}
{"BINDER": "LASHLRKLRKRLLRDADDLQKRLAVYQAGAREGAER [T-046]", "RECORDED_MEASUREMENT": 0.83}
{"BINDER": "HLRKLRKRLLRDGDKLYDRLAEYYARAKEAFDR [T-062]", "RECORDED_MEASUREMENT": 0.97}
{"BINDER": "HLRKLRKRLLRDGDKLQDRLAEYQARAKEAFDR [T-040]", "RECORDED_MEASUREMENT": 2.95}
{"BINDER": "LASHLRKLRKRLLRSLVSQYFQTVTDYGKDLM [T-065]", "RECORDED_MEASUREMENT": 0.03}
